Hi there, I'd appreciate the recorded max response for every entry that follows.
Assay comment: qHTS Assay for Lipid Storage Modulators (AID 1519)
Conditions: Drosophila S3 cells, BODIPY lipid droplet/cell ratio, laser cytometry; measured here: lipid channel max response; cells loaded with oleic acid
Protocol: NIH Molecular Libraries Probe Production Centers Network [MLPCN] NIH Chemical Genomics Center [NCGC] Assay Submitter (PI): Beller, Mathias; Max-Planck-Institut fur Biophysikalische Chemie […] We dispensed 4 uL of cells at 1.25 x 10^6 cells/mL into LoBase Aurora COC 1,536-well plates (black walled, clear bottom) with a bottle-valve solenoid-based dispenser (Aurora) to obtain 5,000 cells/well. […] The ratio of the total intensity in PMT channel 1 over total intensity of channel 3 was also calculated. […]
Inconclusive results are not listed.
Dear colleague, please return just the value in %, with no unit written.

Request: Hello, please tell me recorded max response for this one: CC1(C)OC2C(CO)OC(n3cnc4c(=O)[nH]cnc43)C2O1 (centres undefined)
Response: 5.67

Request: Hello, please tell me recorded max response for this one: "O=C(N[C@@H](CO)[C@@H](O)c1ccc([N+](=O)[O-])cc1)C(Cl)Cl"
Response: 8.81

Request: Hello, please tell me recorded max response for this one: "C[C@H](O)Cn1cnc2c1c(=O)n(C)c(=O)n2C"
Response: -3.77

Request: Hello, please tell me recorded max response for this one: "COc1cc2c(cc1OC)Cc1cc(OC)c(OC)cc1Cc1cc(OC)c(OC)cc1C2"
Response: 2.42

Request: Hello, please tell me recorded max response for this one: "O=c1c(O)cccc2cc(O)c(O)c(O)c12"
Response: 24.4

Request: Hello, please tell me recorded max response for this one: "C[C@H](Oc1ccccc1)C(=O)N[C@@H]1C(=O)N2[C@@H]1SC(C)(C)[C@@H]2C(=O)O"
Response: -3.26

Request: Hello, please tell me recorded max response for this one: "CC(=O)[C@H]1CC[C@@H]2[C@H]3CC=C4C[C@@H](O)CC[C@]4(C)[C@H]3CC[C@]12C"
Response: -15.2

Request: Hello, please tell me recorded max response for this one: CCC(C(N)=O)c1ccccc1 (centres undefined)
Response: 21.9

Request: Hello, please tell me recorded max response for this one: "CC1(C)[C@@H](OC(=O)CCC(=O)O)CC[C@@]2(C)[C@H]1CC[C@@]1(C)[C@H]2C(=O)C=C2[C@H]3C[C@](C)(C(=O)O)CC[C@]3(C)CC[C@@]21C"
Response: -2.85

---

System name: Phenylethanolamine N-methyltransferase (Homo sapiens) (UniProt P11086)
Sequence (P11086 whole entry, looked up): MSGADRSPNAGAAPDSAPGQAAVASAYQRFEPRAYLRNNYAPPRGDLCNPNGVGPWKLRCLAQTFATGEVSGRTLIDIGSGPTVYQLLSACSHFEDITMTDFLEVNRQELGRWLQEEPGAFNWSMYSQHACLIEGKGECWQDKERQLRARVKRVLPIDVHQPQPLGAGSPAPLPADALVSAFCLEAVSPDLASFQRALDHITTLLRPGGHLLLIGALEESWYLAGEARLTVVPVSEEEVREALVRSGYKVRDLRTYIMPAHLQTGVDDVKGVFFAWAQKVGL
Assay comment: Confirmatory Screen for Target Class Profiling of Small Molecule Inhibitors of Methyltransferases (AID 1745852)
Conditions: MTase-Glo luminescence, SAH detection, recombinant enzyme; measured here: PNMT max response; stronger effect = lower value
Hi there, I'd appreciate the recorded activity for every entry that follows.
Dear colleague, please return just the value in %, with no unit written.

Request: Hello, please tell me recorded activity for this one: "Nc1nc(Nc2ccc3c(c2)CC[C@@H](N2CCCC2)CC3)nn1-c1cc2c(nn1)-c1ccccc1CCC2"
Response: -24

Request: Hello, please tell me recorded activity for this one: "CCCS(=O)(=O)c1nc(NC2CC2)cc(-c2ccc3c(ccn3C3CC(C)(C)NC(C)(C)C3)c2)n1"
Response: -6.24

Request: Hello, please tell me recorded activity for this one: "O=C1Nc2ccccc2/C1=C/c1cc(O)ccc1O"
Response: -2.66

Request: Hello, please tell me recorded activity for this one: "COc1cc2c(NC3CCN(C)CC3)nc(N3CCCN(C)CC3)nc2cc1OCCCN(C)C"
Response: -4.66

Request: Hello, please tell me recorded activity for this one: "Nc1nonc1-c1nc2cnccc2n1C1CCCCC1"
Response: -20.9

Request: Hello, please tell me recorded activity for this one: "CCN1CCN(c2ccc(Nc3ccc(-c4ccc(C(N)=O)cc4)n4ncnc34)cc2)CC1"
Response: -8.41
